# TESTED_ON: Proto-oncogene tyrosine-protein kinase Src (Homo sapiens) (UniProt P12931)
# Sequence (P12931 2-536 limits assumed): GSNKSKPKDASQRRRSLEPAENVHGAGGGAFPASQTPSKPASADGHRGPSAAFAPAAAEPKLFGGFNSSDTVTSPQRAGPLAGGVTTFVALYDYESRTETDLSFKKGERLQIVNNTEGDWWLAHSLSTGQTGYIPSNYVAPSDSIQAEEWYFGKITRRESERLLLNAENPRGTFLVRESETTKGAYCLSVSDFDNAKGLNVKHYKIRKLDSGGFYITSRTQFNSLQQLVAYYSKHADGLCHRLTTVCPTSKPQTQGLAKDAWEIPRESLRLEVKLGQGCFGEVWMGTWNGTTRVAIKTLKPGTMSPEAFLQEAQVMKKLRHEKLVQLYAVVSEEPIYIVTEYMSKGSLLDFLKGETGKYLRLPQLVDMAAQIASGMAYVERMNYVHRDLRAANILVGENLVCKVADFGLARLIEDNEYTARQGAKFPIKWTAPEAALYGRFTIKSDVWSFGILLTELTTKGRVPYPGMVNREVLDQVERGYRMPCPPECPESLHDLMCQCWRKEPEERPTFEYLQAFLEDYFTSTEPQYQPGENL
# EXPERIMENTAL_PARAMETERS: at 0.1 µM
The label depends only on inhibition: y if it is at least 5%, n if it is smaller.

# COMPOUND, TESTED_ON, DISCRETE_LABEL
measured = [
    ("COc1cc(Nc2nccc(Nc3ccc4c(C)n[nH]c4c3)n2)cc(OC)c1OC", "Proto-oncogene tyrosine-protein kinase Src (Homo sapiens) (UniProt P12931)", "y"),
    ("COc1ccc2c(-c3ccnc(Nc4cccc(OC(F)(F)F)c4)n3)cnn2n1", "Proto-oncogene tyrosine-protein kinase Src (Homo sapiens) (UniProt P12931)", "y"),
    ("CN(C)CCOc1ccc(-c2nc(-c3ccncc3)c(-c3ccc4c(c3)CC/C4=N\\O)[nH]2)cc1", "Proto-oncogene tyrosine-protein kinase Src (Homo sapiens) (UniProt P12931)", "n"),
    ("CC1=C(C(=O)Nc2cc(Cl)c3[nH]ncc3c2)C(c2ccc(C(F)(F)F)cc2)CC(=O)N1 (configuration not stated)", "Proto-oncogene tyrosine-protein kinase Src (Homo sapiens) (UniProt P12931)", "n"),
    ("CCCN(CCS(C)(=O)=O)Cc1ccc(-c2ccc3ncnc(Nc4ccc(OCc5cccc(F)c5)c(Cl)c4)c3c2)o1", "Proto-oncogene tyrosine-protein kinase Src (Homo sapiens) (UniProt P12931)", "n"),
    ("Cc1cccc2c1NC(=O)/C2=N\\Nc1ccc(S(N)(=O)=O)cc1", "Proto-oncogene tyrosine-protein kinase Src (Homo sapiens) (UniProt P12931)", "n"),
]

---

# TESTED_ON: Platelet-derived growth factor receptor beta (Homo sapiens)
# EXPERIMENTAL_PARAMETERS: at 1 µM
molecules and their reported inhibition
MEASUREMENT_TYPE: inhibition

# MOL_SMILES, MEASURED_VALUE
data = [
    ("CS(=O)(=O)CCNCc1coc(-c2ccc3ncnc(Nc4ccc(OCc5ccccc5)cc4)c3c2)c1", "5.87%"),
    ("O=C(O[C@H]1CN[C@H](C#Cc2cc3ncnc(Nc4ccc(Cc5ccccc5)cc4)c3s2)C1)N1CCOCC1", "0.85%"),
    ("CCn1cc(-c2ccnc3[nH]ccc23)c(-c2cccc(NC(=O)Nc3ccc(OCc4ccccc4)cc3)c2)n1", "3.09%"),
]

---

# System: Mast/stem cell growth factor receptor Kit (Homo sapiens), P10721 [T670I]
# Sequence (P10721 whole entry T670I): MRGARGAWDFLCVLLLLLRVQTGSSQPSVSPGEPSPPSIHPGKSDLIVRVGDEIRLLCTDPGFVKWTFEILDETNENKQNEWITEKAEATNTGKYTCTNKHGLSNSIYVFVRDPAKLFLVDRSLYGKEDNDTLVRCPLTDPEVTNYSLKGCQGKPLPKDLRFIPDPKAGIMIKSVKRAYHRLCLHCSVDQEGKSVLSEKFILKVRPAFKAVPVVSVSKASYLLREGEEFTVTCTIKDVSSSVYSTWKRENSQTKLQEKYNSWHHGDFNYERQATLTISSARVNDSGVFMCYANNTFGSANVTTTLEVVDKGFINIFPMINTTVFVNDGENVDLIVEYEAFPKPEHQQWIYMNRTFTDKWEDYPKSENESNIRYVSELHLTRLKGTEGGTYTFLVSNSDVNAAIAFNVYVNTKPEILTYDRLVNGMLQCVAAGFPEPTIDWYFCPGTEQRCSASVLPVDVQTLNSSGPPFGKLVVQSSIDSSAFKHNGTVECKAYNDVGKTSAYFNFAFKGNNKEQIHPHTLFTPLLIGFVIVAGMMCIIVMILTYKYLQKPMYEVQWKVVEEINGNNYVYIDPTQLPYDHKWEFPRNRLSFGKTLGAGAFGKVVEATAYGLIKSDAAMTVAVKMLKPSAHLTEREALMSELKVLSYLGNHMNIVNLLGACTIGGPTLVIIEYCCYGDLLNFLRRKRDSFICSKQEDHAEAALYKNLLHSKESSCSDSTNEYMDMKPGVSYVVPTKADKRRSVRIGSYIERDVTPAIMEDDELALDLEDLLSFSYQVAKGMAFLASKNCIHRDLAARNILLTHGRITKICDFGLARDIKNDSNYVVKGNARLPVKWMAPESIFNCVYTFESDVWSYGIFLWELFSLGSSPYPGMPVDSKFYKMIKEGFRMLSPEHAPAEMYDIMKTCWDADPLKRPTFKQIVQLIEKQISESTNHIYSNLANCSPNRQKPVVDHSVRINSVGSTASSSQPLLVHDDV
# EXPERIMENTAL_PARAMETERS: at 1 µM

# MOL_SMILES, inhibition [%]
records = [
    ("NS(=O)(=O)c1ccc(N/N=C2\\C(=O)Nc3ccc4ncccc4c32)cc1", 69.4),
    ("N#Cc1c(NC(=O)CN2CCOCC2)sc2c1CCCC2", 3.32),
    ("O=C(Nc1n[nH]c2cc(-c3ccc(F)cc3)ccc12)C1CC1", 4.92),
    ("Fc1cccc(COc2ccc(Nc3ncnc4sc(-c5ccco5)cc34)cc2Cl)c1", 3.7),
    ("CNC(=O)c1cc(-c2ccc(F)cc2)cc(-c2ccc(S(=O)(=O)N3CCCC3)cc2)c1N", 1.68),
    ("Nc1nc(-c2ccc(F)cc2)c(-c2ccc3ncccc3n2)s1", 5.34),
    ("Nc1ncc(-c2cccc(S(N)(=O)=O)c2)c2scc(-c3ccc(F)c(Cl)c3)c12", 5.82),
    ("CCn1cc(-c2ccnc3[nH]ccc23)c(-c2cccc(NC(=O)Nc3ccc(OCc4ccccc4)cc3)c2)n1", -1.25),
    ("O=C(O[C@H]1CN[C@H](C#Cc2cc3ncnc(Nc4ccc(Cc5ccccc5)cc4)c3s2)C1)N1CCOCC1", 0.93),
]

---

# TESTED_ON: Tyrosine-protein kinase CSK (Homo sapiens) (UniProt P41240)
# Sequence (P41240 2-450 limits assumed): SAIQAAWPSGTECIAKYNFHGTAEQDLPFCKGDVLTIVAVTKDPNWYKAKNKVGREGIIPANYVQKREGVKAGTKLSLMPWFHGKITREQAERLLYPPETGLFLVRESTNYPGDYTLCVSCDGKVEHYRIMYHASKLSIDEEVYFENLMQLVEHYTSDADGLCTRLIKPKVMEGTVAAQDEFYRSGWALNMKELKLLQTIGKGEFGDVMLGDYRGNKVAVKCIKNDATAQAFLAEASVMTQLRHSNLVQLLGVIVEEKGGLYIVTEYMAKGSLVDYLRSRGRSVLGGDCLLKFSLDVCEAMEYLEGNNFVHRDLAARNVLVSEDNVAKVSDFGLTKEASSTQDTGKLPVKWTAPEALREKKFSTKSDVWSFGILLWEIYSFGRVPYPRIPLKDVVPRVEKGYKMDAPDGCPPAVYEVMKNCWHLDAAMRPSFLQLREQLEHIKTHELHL
# EXPERIMENTAL_PARAMETERS: at 1 µM
# inhibition values compiled below

# MOL_SMILES, TESTED_ON, inhibition [%]
records = [
    ("CC(C)COC(=O)c1ccc2c(c1)/C(=C/Nc1ccc(S(N)(=O)=O)cc1)C(=O)N2", "Tyrosine-protein kinase CSK (Homo sapiens) (UniProt P41240)", -1.85),
    ("CN(C)CCOc1ccc(-c2nc(-c3ccncc3)c(-c3ccc4c(c3)CC/C4=N\\O)[nH]2)cc1", "Tyrosine-protein kinase CSK (Homo sapiens) (UniProt P41240)", 2.75),
    ("Nc1ncc(-c2cccc(S(N)(=O)=O)c2)c2scc(-c3ccc(F)c(Cl)c3)c12", "Tyrosine-protein kinase CSK (Homo sapiens) (UniProt P41240)", 73.3),
    ("CCn1c(-c2nonc2N)nc2cnc(Oc3cccc(NC(=O)c4ccc(N(C)C)cc4)c3)cc21", "Tyrosine-protein kinase CSK (Homo sapiens) (UniProt P41240)", -0.54),
    ("O=C(Nc1n[nH]c2cc(-c3ccc(F)cc3)ccc12)C1CC1", "Tyrosine-protein kinase CSK (Homo sapiens) (UniProt P41240)", 5.61),
    ("CCCN(CCS(C)(=O)=O)Cc1ccc(-c2ccc3ncnc(Nc4ccc(OCc5cccc(F)c5)c(Cl)c4)c3c2)o1", "Tyrosine-protein kinase CSK (Homo sapiens) (UniProt P41240)", 5.5),
    ("[O-][S+]1CCN(Cc2ccc(-c3ccc4ncnc(Nc5ccc(OCc6cccc(F)c6)c(Cl)c5)c4c3)o2)CC1", "Tyrosine-protein kinase CSK (Homo sapiens) (UniProt P41240)", 5.15),
    ("NC(=O)c1sc(-n2cnc3ccc(C(F)(F)F)cc32)cc1OCc1ccccc1Br", "Tyrosine-protein kinase CSK (Homo sapiens) (UniProt P41240)", 4.85),
]

---

# TESTED_ON: MAP kinase-activated protein kinase 2 (Homo sapiens) (UniProt P49137)
# Sequence (P49137 whole entry, looked up): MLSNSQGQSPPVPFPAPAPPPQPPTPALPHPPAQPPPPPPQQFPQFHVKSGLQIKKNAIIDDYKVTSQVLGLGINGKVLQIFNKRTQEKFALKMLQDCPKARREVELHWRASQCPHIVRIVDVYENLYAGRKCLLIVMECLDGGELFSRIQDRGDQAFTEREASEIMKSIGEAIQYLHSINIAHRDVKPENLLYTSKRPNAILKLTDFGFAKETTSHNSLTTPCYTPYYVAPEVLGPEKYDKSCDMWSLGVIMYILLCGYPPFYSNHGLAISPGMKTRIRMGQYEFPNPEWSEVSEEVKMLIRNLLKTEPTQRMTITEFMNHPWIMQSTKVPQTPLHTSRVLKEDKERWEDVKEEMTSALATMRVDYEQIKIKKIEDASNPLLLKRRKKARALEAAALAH
# EXPERIMENTAL_PARAMETERS: at 1 µM

# MOL_SMILES, inhibition / %
rows = [
    ("COc1cc(Nc2nccc(Nc3ccc4c(C)n[nH]c4c3)n2)cc(OC)c1OC", 0.86),
    ("COc1ccc(-c2oc3ncnc(N)c3c2-c2ccc(NC(=O)Nc3cc(C(F)(F)F)ccc3F)cc2)cc1", 2.83),
    ("Fc1ccc(-c2nn3ncccc3c2-c2ccnc(Nc3ccc4c(c3)OCCO4)n2)cc1", 1.39),
    ("CC(C)COC(=O)c1ccc2c(c1)/C(=C/Nc1ccc(S(N)(=O)=O)cc1)C(=O)N2", -1.28),
    ("O=C(O[C@H]1CN[C@H](C#Cc2cc3ncnc(Nc4ccc(Cc5ccccc5)cc4)c3s2)C1)N1CCOCC1", -0.1),
    ("CCN1CCC(CC(=O)Nc2n[nH]c3nnc(-c4cccc(F)c4F)cc23)CC1", 0.52),
    ("COC(=O)Nc1nc2ccc(Oc3ccc(NC(=O)Nc4cccc(Cl)c4)cc3)cc2[nH]1", -0.56),
    ("CCCN1CCC(c2ccc(Nc3nc(Nc4cc(F)ccc4C(N)=O)c4cc[nH]c4n3)c(OC)c2)CC1", 3.23),
    ("FC(F)(F)c1cccc(-c2nn3ncccc3c2-c2ccnc(Nc3ccc4c(c3)OCCO4)n2)c1", 0.88),
    ("NS(=O)(=O)c1ccc(N/N=C2\\C(=O)Nc3ccc4ncccc4c32)cc1", 1.9),
    ("CC(=O)Nc1cccc(C#Cc2cncnc2Nc2ccc(OCc3cccc(F)c3)c(Cl)c2)c1", -2.08),
    ("c1cc(-c2cnn3nc(N4CCOCC4)ccc23)nc(NC2CC2)n1", 1.97),
    ("COc1cccc(-c2c[nH]c3c(N/N=C/c4ccncc4)ncnc23)c1", 3.56),
    ("COc1ccc(CNC(=O)c2ccc(-c3cc(-c4nnc(C)o4)ccc3C)cc2)cc1", 5.53),
]

---

# TESTED_ON: Tyrosine-protein kinase Lck (Homo sapiens)
# EXPERIMENTAL_PARAMETERS: at 0.1 µM

# MOL_SMILES, inhibition / %
rows = [
    ("O=S(=O)(CCNCc1ccc(-c2ccc3ncnc(Nc4ccc(OCc5cccc(F)c5)c(Cl)c4)c3c2)o1)c1ccccc1", 3.99),
    ("CN(C)CCOc1ccc(-c2nc(-c3ccncc3)c(-c3ccc4c(c3)CC/C4=N\\O)[nH]2)cc1", 2.08),
    ("N#Cc1c(NC(=O)c2ccc(F)cc2)sc2c1CCCC2", 0.7),
]

---

The compounds listed here are annotated with their inhibition.
# TESTED_ON: Serine/threonine-protein kinase PAK 1 (Homo sapiens)
# EXPERIMENTAL_PARAMETERS: at 1 µM
MEASUREMENT_TYPE: inhibition (%)

# MOL_SMILES, TESTED_ON, UNITS_SYMBOL, MEASURED_VALUE
records = [
    ("[O-][S+]1CCN(Cc2ccc(-c3ccc4ncnc(Nc5ccc(OCc6cccc(F)c6)c(Cl)c5)c4c3)o2)CC1", "Serine/threonine-protein kinase PAK 1 (Homo sapiens)", "%", 11.2),
    ("CCc1nn2ncccc2c1-c1ccnc(NC2CC2)n1", "Serine/threonine-protein kinase PAK 1 (Homo sapiens)", "%", 4.68),
    ("COc1ccc(-c2oc3ncnc(N)c3c2-c2ccc(NC(=O)Nc3cc(C(F)(F)F)ccc3F)cc2)cc1", "Serine/threonine-protein kinase PAK 1 (Homo sapiens)", "%", 5.48),
    ("NS(=O)(=O)c1ccc(Nc2ncc(-c3ccccc3)o2)cc1", "Serine/threonine-protein kinase PAK 1 (Homo sapiens)", "%", 7.88),
    ("CC(=O)NCc1cccc(C#Cc2cncnc2Nc2ccc(OCc3cccc(F)c3)c(Cl)c2)c1", "Serine/threonine-protein kinase PAK 1 (Homo sapiens)", "%", 4.46),
    ("CCOc1ccc2c(-c3ccnc(Nc4cccc(C(F)(F)F)c4)n3)cnn2n1", "Serine/threonine-protein kinase PAK 1 (Homo sapiens)", "%", 3.75),
    ("Nc1nc(-c2ccc(F)cc2)c(-c2ccc3ncccc3n2)s1", "Serine/threonine-protein kinase PAK 1 (Homo sapiens)", "%", 6.35),
    ("CN(C)CCOc1ccc(-c2nc(-c3ccncc3)c(-c3ccc4c(c3)CC/C4=N\\O)[nH]2)cc1", "Serine/threonine-protein kinase PAK 1 (Homo sapiens)", "%", 9.24),
    ("CCn1c(-c2nonc2N)nc2c(C#CC(C)(C)O)nc(OC[C@H](N)c3ccccc3)cc21", "Serine/threonine-protein kinase PAK 1 (Homo sapiens)", "%", 3.91),
    ("COc1ccc(-c2cc(-c3c[nH]nc3-c3ccccn3)ccn2)cc1", "Serine/threonine-protein kinase PAK 1 (Homo sapiens)", "%", 3.96),
    ("O=S(=O)(CCNCc1ccc(-c2ccc3ncnc(Nc4ccc(OCc5cccc(F)c5)c(Cl)c4)c3c2)o1)c1ccccc1", "Serine/threonine-protein kinase PAK 1 (Homo sapiens)", "%", 7.19),
    ("Fc1ccc(-c2nn3ncccc3c2-c2ccnc(Nc3ccc4c(c3)OCCO4)n2)cc1", "Serine/threonine-protein kinase PAK 1 (Homo sapiens)", "%", 9.76),
    ("CC(C)COC(=O)c1ccc2c(c1)/C(=C/Nc1ccc(S(N)(=O)=O)cc1)C(=O)N2", "Serine/threonine-protein kinase PAK 1 (Homo sapiens)", "%", 1.52),
    ("COc1ccc(-c2cc3c(N)ncnc3o2)cc1", "Serine/threonine-protein kinase PAK 1 (Homo sapiens)", "%", -0.27),
]

// provenance: ChEMBL document CHEMBL1961873
